assay: Unbound fraction in mouse brain; assay type: ADME, tissue-based
// fraction unbound lookup, one value per entry

>  <molecule smiles>
Cc1ccnc(Nc2nc(-c3ccc(-c4ccccn4)s3)cs2)c1

>  <fraction unbound>
0.08

$$$$
>  <molecule smiles>
Cc1cccc(Nc2nc(-c3ccc(-c4ccccc4)cc3)cs2)n1

>  <fraction unbound>
0.08

$$$$

* * *

test: Cmax in mouse brain at 10 mg/kg, po administered as single dose; type: ADME, organism-based; design: dose 10 mg/kg, route oral; conditions: brain

>  <molecule smiles>
O=C(Nc1nc(-c2ccc(-c3ccccc3)cc2)cs1)C1CC1

>  <u>
µM

>  <Cmax>
4.34

$$$$
